Parameter AUC(0-inf): see the listing below.
Test: Pharmacokinetics (PK) in SD rats
Type: in vivo
Details: SD, plasma, po; rat, intragastric administration, 1 mg/kg

Example compounds with recorded AUC(0-inf):
| Compound | Readout Value |
| --- | --- |
| COc1ccc(CNc2nc(N3Cc4cccnc4C3)ncc2C(=O)N[C@H]2CC[C@H](O)CC2)cc1Cl [WO-93, reference compound] | 89 ng·h/mL |
| COc1ccc(CNc2nc(N3CC4CC4C3)ncc2C(=O)N[C@H]2CC[C@H](O)CC2)cc1Cl (stereo partly shown) | 604 ng·h/mL |
| COc1ccc(CNc2nc(N3CCC4(CCC4)CC3)ncc2C(=O)NCc2ncccn2)cc1Cl | 36 ng·h/mL |

# next compound below
Ask: Return reported AUC(0-inf); argument: COc1ccc(CNc2nc(N3CCC[C@H]3CO)ncc2C(=O)N[C@H]2CC[C@H](O)CC2)cc1Cl [WO-88, reference compound]
Result: 63 ng·h/mL
